Test system: LXRa homodimer (NR concentration 270 nM)
Measurement Description: PBM binding z-score (relative to random genomic background probes); higher = stronger binding; sequences stand for … in GC…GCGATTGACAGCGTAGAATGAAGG
Assay Readout: PBM binding z-score
Answers are plain numbers.

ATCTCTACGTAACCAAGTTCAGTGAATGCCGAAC :: 0.728
TTACCAAGGCGAAAGGTCGTTGATGCACGCCTTG :: 0.121
CCAGACAGGAGAAAGGTAACTCAGTCTGGTACGC :: -0.373
CCTCGGAGGCCAACAGGAGGTCAGAGCTGCCAGA :: 1.48
GCTTGTAGATCAAGGTTTAGAAAGACTAAGCTAA :: -0.302

Lab note: each sequence below needs its PBM binding z-score filled in.
1. AATACAGGGTCACTAGGCCATAGTAGGTACGAAT
2. CTCGAAAGGCCGTGCTCAGGTGAGTATACCAAAC
3. TCATATAGGTATATGCTAGGTGAAAGTCCGATCT

1: 1.02; 2: -0.406; 3: 0.175
